assay: GFP drop in mixed WT/humanized-ribosome E. coli culture – GFP/RFP fluorescence, OD600, single point, bacterial rRNA inhibitor project, primary screen (AID 720706); details: E. coli WT GFP vs humanized-ribosome RFP mutants, 24 h; measured here: RFP humanized mutant strains, DMSO median 0, no signal -100, concentration not given here
Out of some 350,000 compounds screened, about 5,500 (1.6%) were called active. The full list was thinned out, with actives kept by preference.
Reported endpoint: RFP signal change (%)
Give just the number in %; leave the unit off.

>  <Structure string>
CCNC(=O)[C@H]1[C@H](CO)[C@H]2Cn3c(cccc3=O)[C@H]2N1C(=O)C1CCCC1

>  <Reported endpoint>
RFP signal change

>  <Val>
-1.17

$$$$
>  <Structure string>
O=S(=O)(Nc1ccc(OC(F)(F)F)cc1)c1cccc2nonc12

>  <Reported endpoint>
RFP signal change

>  <Val>
-10.9

$$$$

Prompt: I would be grateful if you could share the reported RFP signal change for O=C(O)c1ccc(NS(=O)(=O)c2cccc3nsnc23)cc1 .
Response: 0.548

Prompt: Quick one: RFP signal change for Cc1ccc(S(=O)(=O)N(C)C[C@@H]2Oc3c(NS(=O)(=O)c4ccc(F)cc4)cccc3C(=O)N([C@@H](C)CO)C[C@H]2C)cc1 ?
Response: 0.647

Prompt: Query (compound): CCc1cccc(NC(=O)CCNS(=O)(=O)c2cccc3nonc23)c1 ; field requested: RFP signal change
Response: 18.6

* * *

experiment: GFP drop in mixed WT/humanized-ribosome E. coli culture – GFP/RFP fluorescence, OD600, single point, bacterial rRNA inhibitor project, primary screen (AID 720706); conditions: E. coli WT GFP vs humanized-ribosome RFP mutants, 24 h; stronger effect = lower value, DMSO median 0, no signal -100
Among all 350,000 compounds or so, about 5,500 (1.6%) were called active. Many of the other results were omitted from the sample, so actives are more common in it than they were.
Reported endpoint: GFP signal change (wild-type ribosome) (%)
# output: bare number, implied unit %

>  <Compound>
O=C(c1cccc(F)c1)N1CC(=O)N2[C@H](C1)[C@@H](c1ccc(C#Cc3ccc(F)cc3)cc1)[C@@H]2CO

>  <Unit of measure>
%

>  <Val>
1.74

$$$$
>  <Compound>
Cc1c(C(=O)NCCN2CCOCC2)sc2nc(-c3ccc(F)cc3)cn12

>  <Unit of measure>
%

>  <Val>
-16.9

$$$$
>  <Compound>
Cc1cccc(C)c1N1C(=O)CN(Cc2ccccc2)C1=S

>  <Unit of measure>
%

>  <Val>
-22.1

$$$$
>  <Compound>
O=C1Oc2ccccc2C(=O)/C1=C/c1ccccc1O

>  <Unit of measure>
%

>  <Val>
-24

$$$$
>  <Compound>
Cc1c(C(=O)NCC2CCCO2)sc2nc(-c3ccccc3)cn12 (stereo not given)

>  <Unit of measure>
%

>  <Val>
-4.79

$$$$
>  <Compound>
COc1cccc(S(=O)(=O)N2CC3(CCN(C)CC3)c3c(n(C)c4cc(OC)ccc34)[C@H]2CO)c1

>  <Unit of measure>
%

>  <Val>
-0.483

$$$$
>  <Compound>
CCN(CC)C(=O)c1nc[nH]c1C(=O)N(C)Cc1ccccc1

>  <Unit of measure>
%

>  <Val>
31.5

$$$$
>  <Compound>
O=C(NCC[C@H]1CC[C@H](NC(=O)C2CC2)[C@@H](CO)O1)c1cc(Cl)cc(Cl)c1

>  <Unit of measure>
%

>  <Val>
-1.63

$$$$
>  <Compound>
Cc1ccc2c(N)c(C(=O)c3ccccc3)sc2n1

>  <Unit of measure>
%

>  <Val>
-33.7

$$$$
>  <Compound>
CO[C@@H]1CN(C)C(=O)c2ccc(NS(C)(=O)=O)cc2OC[C@@H](C)N(C(=O)C2CCOCC2)C[C@@H]1C

>  <Unit of measure>
%

>  <Val>
2.81

$$$$

Prompt: Return reported GFP signal change (wild-type ribosome); argument: COc1ccc(S(=O)(=O)N(C)C[C@@H]2Oc3ccc(NC(=O)CCC(F)(F)F)cc3C(=O)N([C@@H](C)CO)C[C@@H]2C)cc1
Response: 2.48

Prompt: Look at this compound and give its reported GFP signal change (wild-type ribosome). Cc1ccc(C(=O)N/C(=C\c2ccc(F)cc2)C(=O)NCCN2CCOCC2)cc1
Response: 8.39

Prompt: I would be grateful if you could share the reported GFP signal change (wild-type ribosome) for Cc1noc(C)c1S(=O)(=O)Nc1ccc2c(c1)CC(=O)N([C@@H](C)CO)C[C@H](C)[C@H](CN(C)C(=O)Nc1cccc3ccccc13)O2 .
Response: -2.17

Prompt: Would you mind telling me what GFP signal change (wild-type ribosome) value was observed for Cc1ccc(NC(=O)c2sc3nc(N)c(C#N)cc3c2N)cc1 ?
Response: 1.14

Prompt: Look at this compound and give its reported GFP signal change (wild-type ribosome). CCN(CC)C(=O)c1sc2nc(-c3ccccc3)ccc2c1N
Response: -15.6

Prompt: Form field: reported GFP signal change (wild-type ribosome) of CC(C)NC(=O)/C(C#N)=C\c1ccc(N(C)C)c(Br)c1
Response: -19.9

Prompt: Entry CCc1cccc(C)c1N1C(=O)CN(Cc2ccccc2)C1=S : reported GFP signal change (wild-type ribosome) = ?
Response: 1.91

Prompt: Sample O=C(NN=Cc1ccccc1O)NN=Cc1ccccc1O — what was its GFP signal change (wild-type ribosome)?
Response: -15.2

Prompt: // lookup GFP signal change (wild-type ribosome) for Cc1[nH]c2ccccc2c1/C=C(/C#N)C(=O)NC(C)C
Response: -4.98

Prompt: Quick one: GFP signal change (wild-type ribosome) for COCC#Cc1ccc([C@@H]2[C@@H](CO)N3C(=O)CN(C(=O)Nc4cc(F)ccc4F)C[C@@H]23)cc1 ?
Response: -10.5

* * *

test: GFP drop in mixed WT/humanized-ribosome E. coli culture – GFP/RFP fluorescence, OD600, single point, bacterial rRNA inhibitor project, primary screen (AID 720706); details: E. coli WT GFP vs humanized-ribosome RFP mutants, 24 h, DMSO median 0, no signal -100
Out of some 350,000 compounds screened, about 5,500 (1.6%) were called active.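 How the source made its calls: active means significant combined selectivity score with lowered wild-type GFP, culture density cut under 30%, mutant RFP and density less affected; inactive means any of these conditions unmet.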 Only a selection was taken, and actives are over-represented in it overall.
Pick from 1.0 (active), 0.0 (inactive) when you respond.

Example entries and their recorded answers appear below.
>  <Structure string>
O=C(OCC(=O)c1cccs1)c1ccc([N+](=O)[O-])o1

>  <Class assignment>
0.0

$$$$
>  <Structure string>
O=C(COC(=O)c1ccc([N+](=O)[O-])o1)NC12CC3CC(CC(C3)C1)C2

>  <Class assignment>
1.0

$$$$
>  <Structure string>
O=C(NCCc1csc(-c2ccccc2)n1)c1ccccc1F

>  <Class assignment>
1.0

$$$$

Prompt: I'd appreciate the recorded outcome for C[C@@H]1CN([C@@H](C)CO)C(=O)c2cc(NS(=O)(=O)c3cn(C)cn3)ccc2O[C@@H]1CN(C)Cc1ccc(C(=O)Nc2ccccc2N)cc1 from this test.
Response: 0.0

Prompt: What did the test return for O=C(COC(=O)c1ccc(Br)o1)NC12CC3CC(CC(C3)C1)C2 ?
Response: 0.0

* * *

RFP signal change values, listed per item
test: GFP drop in mixed WT/humanized-ribosome E. coli culture – GFP/RFP fluorescence, OD600, single point, bacterial rRNA inhibitor project, primary screen (AID 720706); settings: E. coli WT GFP vs humanized-ribosome RFP mutants, 24 h; measured here: RFP humanized mutant strains, DMSO median 0, no signal -100, concentration not given here
The whole screen tested about 350,000 compounds, of which about 5,500 (1.6%) were called active. This excerpt belongs to a sample that is enriched for actives.
Entry rule: numbers only, all in %.

Consider the worked cases shown below.
>  <Structure string>
COc1cc(C(=O)NCC(=O)N2CC=C(c3ccccc3)CC2)cc(OC)c1OC

>  <RFP signal change / %>
0.011

$$$$
>  <Structure string>
Brc1ccc2c(c1)[C@H]1OCC[C@H]1[C@@H](c1cccs1)N2

>  <RFP signal change / %>
-11.9

$$$$
>  <Structure string>
O=C(NCc1ccc2c(c1)OCO2)c1c(-c2ccsc2)sc2ccccc12

>  <RFP signal change / %>
-0.565

$$$$
>  <Structure string>
C[C@@H]1CN([C@H](C)CO)S(=O)(=O)c2ccc(C#CC3CC3)cc2O[C@H]1CN(C)C(=O)C1CCCCC1

>  <RFP signal change / %>
15.7

$$$$

Prompt: Give its RFP signal change value. Item: O=C(NCc1ccc2c(c1)OCO2)c1sccc1Br
Response: 4.92

Prompt: # query: RFP signal change of entry COc1cc(C(=O)NCc2cc3cc(Cl)ccc3n2C)cc(OC)c1OC
Response: 5.4

Prompt: Value lookup for RFP signal change; key = CC(C)[C@@H]1COCc2cnnn2CCC[C@H](C)C(=O)N1
Response: 1.53

Prompt: Given the compound CCn1c(CNC(=O)c2cc(OC)c(OC)c(OC)c2)cc2cc(C)ccc21 , what is its reported RFP signal change?
Response: -1.24

Prompt: I have this compound here, CCNC(=S)N1CCN(CCN=CC2=C(O)CC(C)(C)CC2=O)CC1 , and I need its recorded RFP signal change.
Response: -7.06

Prompt: Which RFP signal change is listed for O=C(NCc1ccc2c(c1)OCO2)c1c(O)nc2sccn2c1=O ?
Response: 0.304

Prompt: # input compound: C[C@H](CO)N1C[C@H](C)[C@H](CN(C)S(=O)(=O)c2cccs2)Oc2c(NS(=O)(=O)c3ccc(Cl)cc3)cccc2C1=O ; wanted: its RFP signal change
Response: 3.43

Prompt: // RFP signal change lookup, key: COc1ccccc1NC(=O)N1C[C@@H]2[C@H](c3ccccc31)[C@H](CO)N2CC1CCOCC1
Response: 0.913
